# assayed_system: Protein skinhead-1 (Caenorhabditis elegans)
# Sequence (P34707 whole entry): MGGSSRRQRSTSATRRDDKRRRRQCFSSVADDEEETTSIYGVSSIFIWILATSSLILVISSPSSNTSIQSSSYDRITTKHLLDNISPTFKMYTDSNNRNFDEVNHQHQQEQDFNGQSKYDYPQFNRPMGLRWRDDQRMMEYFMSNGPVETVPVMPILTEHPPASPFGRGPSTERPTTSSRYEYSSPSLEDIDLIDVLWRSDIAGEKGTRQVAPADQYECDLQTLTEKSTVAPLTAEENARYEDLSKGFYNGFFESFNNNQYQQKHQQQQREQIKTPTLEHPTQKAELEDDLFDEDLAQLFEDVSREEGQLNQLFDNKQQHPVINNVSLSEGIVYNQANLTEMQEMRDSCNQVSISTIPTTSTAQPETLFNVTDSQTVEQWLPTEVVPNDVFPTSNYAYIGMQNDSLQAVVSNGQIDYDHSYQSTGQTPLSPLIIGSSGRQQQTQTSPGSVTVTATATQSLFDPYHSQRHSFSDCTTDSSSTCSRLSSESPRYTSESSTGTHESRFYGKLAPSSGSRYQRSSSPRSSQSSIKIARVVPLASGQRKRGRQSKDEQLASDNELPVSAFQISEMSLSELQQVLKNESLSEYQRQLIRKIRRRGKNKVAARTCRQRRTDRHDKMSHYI
# Format: functional
Active and inactive are the calls of the source.
Possible outcomes: yes (1) for active, no (0) for inactive

| compound | label_class |
| --- | --- |
| OC(CNC1CCCC1)COc1ccc(-c2ccccc2)cc1 (configuration not stated) | yes (1) |
| COc1ccc(-c2cc(-c3ccccc3)[nH]n2)c(O)c1 | no (0) |
| Cc1nnc(SCCn2c(N3CC(C)CC(C)C3)nc3c2c(=O)n(C)c(=O)n3C)s1 (configuration not stated) | no (0) |
| CC1CCCCN1Cc1c(O)ccc2c(O)c(-c3nc4ccccc4s3)c(=N)oc12 (configuration not stated) | yes (1) |
| CC(C)NC(=O)C1(C)CSCC(=O)N1CCCN1CCOCC1 (configuration not stated) | no (0) |
| Cc1ccc(C(C#N)c2ccc3c(C(F)(F)F)cc(C(F)(F)F)nc3n2)cc1 (configuration not stated) | no (0) |
| COC(=O)c1ccc(S(=O)(=O)N2CCCCCC2)cc1 | no (0) |
